Each recorded value in this set is attributed to patent US6403602B1.

Catalogue of IC50 readings, one per entry.
Test system: κ2 sites
Type: binding, guinea pig
Counter-ions that a name gives are not always drawn.
readout.label: IC50

INSERT INTO assay_data (molecule, result_value) VALUES
  ('CCC(=O)Oc1ccc2c3c1O[C@H]1[C@@H](OS(=O)(=O)O)C=C[C@H]4[C@@H](C2)N(C)CC[C@@]341 [NIDA # 20,270, 3-O-Propionylmorphine-6-O-sulfate]', '> 10000 nM'),
  ('Oc1ccc2c3c1O[C@H]1c4oc5ccccc5c4C[C@@]4(O)[C@@H](C2)N(CC2CC2)CC[C@]314', '406 nM'),
  ('CCC12CCN(CC3(O)CC3)C(Cc3ccc(O)cc31)C2(C)C (single isomer, unassigned; (+)) [(+)Bremazocine]', '11.2 nM'),
  ('CC[C@@]12CCN(CC3CC3)C(C(=O)c3ccc(O)cc31)[C@@H]2C (single isomer, unassigned; (-)) [(−)EKC]', '25.2 nM'),
  ('CC(=O)Oc1ccc2c3c1O[C@H]1[C@@H](OS(=O)(=O)[O-])C=C[C@H]4[C@@H](C2)[N+](C)(C)CC[C@@]341', '> 10000 nM'),
  ('COC(=O)/C=C/C(=O)N[C@@H]1CC[C@@]2(O)[C@H]3Cc4ccc(O)c5c4[C@@]2(CCN3CC2CC2)[C@H]1O5 [β-FNA-HCl]', '66.5 nM');

----------
Catalogue of pIC50 readings, one per entry.
Tested on: κ2 sites
Format: binding, guinea pig
pIC50: −log10 of the molar value. Structures can show the parent of a compound that is named as a salt.
readout.label: pIC50

INSERT INTO assay_data (compound, tested_on, sign, result_value) VALUES
  ('CCCN1CCCC(c2cccc(O)c2)C1 (single isomer, unassigned; (+)) [(+) 3-PPP-HCl]', 'κ2 sites', '<', 5.00),
  ('C=CCN1CC[C@@]2(C)c3cc(O)ccc3CC1[C@@H]2C.Cl (single isomer, unassigned; (-)) [(−) SKF 10,047-HCl]', 'κ2 sites', '=', 6.88),
  ('c1csc(C2(N3CCCCC3)CCCCC2)c1 [TCP-HCl]', 'κ2 sites', '<', 5.00),
  ('CC(C)C[C@@H](NC(=O)[C@H](Cc1ccccc1)NC(=O)CNC(=O)[C@@H](C)NC(=O)[C@@H](N)Cc1ccc(O)cc1)C(=O)O [DADLE-OH]', 'κ2 sites', '<', 5.00),
  ('CCC12CCN(CC3CC3)C(C(=O)c3ccc(O)cc31)C2C (single isomer, unassigned; (+)) [(+)EKC-sulfonate]', 'κ2 sites', '=', 6.88),
  ('O=C1/C(=C/c2ccccc2)C[C@@]2(O)[C@H]3Cc4ccc(O)c5c4[C@@]2(CCN3CC2CC2)[C@H]1O5 [BNTX]', 'κ2 sites', '=', 6.08),
  ('O=C1CC[C@@]2(O)[C@H]3Cc4ccc(O)c5c4[C@@]2(CCN3CC2CC2)[C@H]1O5 [Naltrexone-HCl]', 'κ2 sites', '=', 6.64);

----------
tested.on: kappa3 receptors
condition.summary: read-out: Ki κ3 [^3H]NalBzoH
pKi: −log10 of the molar value. Where a name gives a salt, the structure may show the parent alone.
Catalogue of pKi readings, one per entry.
readout.label: pKi

INSERT INTO results (compound, readout_label, sign, result_value) VALUES
  ('Oc1ccc2c3c1O[C@H]1c4[nH]c5c(c4C[C@@]4(O)[C@@H](C2)N(CC2CC2)CC[C@]314)C[C@@]1(O)[C@H]2Cc3ccc(O)c4c3[C@@]1(CCN2CC1CC1)[C@H]5O4 [Nor-BNI (HCl)2, nor-binaltorphimine]', 'pKi', '=', 7.82),
  ('CCC12CCN(CC3CC3)C(C(=O)c3ccc(O)cc31)C2C (single isomer, unassigned; (+)) [(+)EKC-sulfonate]', 'pKi', '=', 8.28),
  ('CCC(=O)Oc1ccc2c3c1O[C@H]1[C@@H](OS(=O)(=O)O)C=C[C@H]4[C@@H](C2)N(C)CC[C@@]341 [NIDA # 20,270, 3-O-Propionylmorphine-6-O-sulfate]', 'pKi', '=', 7.70),
  ('COC(=O)/C=C/C(=O)N[C@@H]1CC[C@@]2(O)[C@H]3Cc4ccc(O)c5c4[C@@]2(CCN3CC2CC2)[C@H]1O5 [β-FNA-HCl]', 'pKi', '=', 9.10),
  ('CN1CC[C@]23c4c5ccc(O)c4O[C@H]2[C@@H](OS(=O)(=O)O)C=C[C@H]3[C@H]1C5 [NIDA # 20,266, Morphine-6-O-Sulfate]', 'pKi', '=', 8.20),
  ('CN1CC[C@]23c4c5ccc(OS(=O)(=O)O)c4O[C@H]2[C@@H](O)C=C[C@H]3[C@H]1C5 [NIDA # 20,268, morphine-3-O-sulfate]', 'pKi', '=', 5.77),
  ('CC1(C)SSC(C)(C)[C@@H](NC(=O)[C@@H](N)Cc2ccc(O)cc2)C(=O)NCC(=O)N[C@@H](Cc2ccc(Cl)cc2)C(=O)N[C@H]1C(=O)O', 'pKi', '=', 5.99),
  ('C=CCN1CC[C@@]2(C)c3cc(O)ccc3C[C@@H]1[C@@H]2C [(+) SKF 10,047-HCl]', 'pKi', '<', 6.00),
  ('CN1CC[C@]23c4c5ccc(OC(=O)c6ccccc6)c4O[C@H]2[C@@H](OS(=O)(=O)O)C=C[C@H]3[C@H]1C5 [NIDA # 20,273, 3-O-Benzoylmorphine-6-O-sulfate]', 'pKi', '=', 6.29),
  ('C=CCN1CC[C@]23c4c5ccc(O)c4O[C@H]2/C(=N/NC(=O)c2ccccc2)CC[C@@]3(O)[C@H]1C5 [NalBzoH, naloxone benzoylhydrazone]', 'pKi', '=', 9.52),
  ('CC1C2Cc3ccc(O)cc3C1(C)CCN2CC1CC1 (single isomer, unassigned; (+)) [(+) Cyclazocine]', 'pKi', '=', 6.10),
  ('Oc1ccc2c3c1O[C@H]1c4[nH]c5ccccc5c4C[C@@]4(O)[C@@H](C2)N(CC2CC2)CC[C@]314', 'pKi', '=', 7.91),
  ('c1ccc(C2(N3CCCCC3)CCCCC2)cc1 [PCP-HCl]', 'pKi', '<', 5.00);
